B1: tRNA (parent)
chain: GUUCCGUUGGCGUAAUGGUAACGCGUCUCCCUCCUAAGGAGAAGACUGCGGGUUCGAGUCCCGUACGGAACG

- Variants of: B1
- experimental details: yeast fitness relative to wild type (ratio to wild type); higher = fitter; tRNA-Arg(CCU), competitive growth, 37 C, YPD
Variants at the floor of the assay were thinned out.
Use YES when the recorded yeast fitness is no lower than 0.6; use NO when it is lower.

# check: yeast fitness of G10C G67C is greater than or equal to 0.6
YES

# check: yeast fitness of U28G C29A G41C A43U is greater than or equal to 0.6
NO

# check: yeast fitness of U28A U64G is greater than or equal to 0.6
YES
